Protocol summary: M. tuberculosis growth inhibition, HTS (AID 449762);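 also: bacterial growth assessed after seven days of incubation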
Measurement parameters: M. tuberculosis H37Rv growth inhibition, 7H9 media; at 25 µM; stronger effect = higher value
The campaign covered roughly 330,000 compounds. About 1,900 (0.58%) were called active. Another 4% or so got no clear call; they are omitted. Only a sample is shown. Measured potencies and affinities stand elsewhere.
Property: inhibition (%)
Quick note: give the figure in %, leave out the unit.

Prompt: Which measured inhibition value corresponds to `Cc1cccc(C(=O)Nc2cccc3cccnc23)c1` ?
Response: 25.4

Prompt: Again, but for `CCOc1ccc(CN(C)C(=O)c2cccnc2OCC)cc1OC`
Response: -1.02

Prompt: Again, but for `N#CCn1c(Cc2ccccc2)nc2ccccc2c1=O`
Response: -1.48

Prompt: Again, but for COc1ccc2c(c1)CC(N1CCN(C)CC1)c1cc(OC)ccc1S2 (stereo unspecified)
Response: 9.95

Prompt: Again, but for `Cn1c(SCC(=O)c2ccc3c(c2)OCCO3)nnc1C(F)(F)F`
Response: -5.9

Prompt: Again, but for CCC(C)[C@H](NC(=O)C1CC(=O)N(c2ccc3c(c2)OCCO3)C1)C(=O)NC1CCCC1 (stereo partly specified)
Response: -2.76

Prompt: Again, but for `CCCCNC(=O)CCNC(=O)c1ccc(C(C)(C)C)cc1`
Response: -8.34

Prompt: Again, but for `Cc1cc(CN(C)C(=O)c2ccc3nc(Cc4ccccc4F)oc3c2)n[nH]1`
Response: -6.04

Prompt: Again, but for `CCN(CC)c1ccc2c(C)c(Cl)c(=O)oc2c1`
Response: -3.19

Prompt: Again, but for `C=CCNc1oc(-c2ccc(Cl)cc2)nc1C#N`
Response: 47.3

Prompt: Again, but for `Cc1ccc2nc(-c3ccc(NS(C)(=O)=O)cc3)cc(-c3ccccc3)c2c1`
Response: 0.07

Prompt: Again, but for `C=CCNc1oc(-c2ccc(OC)cc2)nc1C#N`
Response: 4.44

Prompt: Again, but for `CCCCn1c(SCc2nc3ccccc3s2)nc2cc(S(N)(=O)=O)ccc21`
Response: 1.21

Prompt: Again, but for `CCOC(=O)CNC(=O)CSc1nnc(NC(=O)c2ccc3c(c2)OCO3)s1`
Response: -3.99

Prompt: Again, but for `CC(=O)c1cccc(OCc2cc(C(=O)N(C)CCc3cnn(C)c3)no2)c1`
Response: 1.92

Prompt: Again, but for `Cc1ccc(S(=O)(=O)N(C)C)cc1NC(=O)c1cccnc1Oc1ccccc1`
Response: -2.85

Prompt: Again, but for `CCN(Cc1cnn(C)c1)C(=O)c1cc(COc2cc(C)c(Cl)c(C)c2)on1`
Response: 10

Prompt: Again, but for `Cc1ccc(C)c(N2CCN(S(=O)(=O)c3ccc(-c4cc(C)no4)s3)CC2)c1`
Response: 6.24

Prompt: Again, but for CCCC(c1nnnn1CC1CCCO1)N1CCN(c2cc(Cl)ccc2C)CC1 (stereo unspecified)
Response: 1.1

Prompt: Again, but for COc1ccccc1N(O)C1CC(=O)N(c2ccc(F)cc2)C1=O (stereo unspecified)
Response: 10.9

Prompt: Again, but for `C/C(=N\NC(=S)NCc1ccccc1)c1ccc(Br)cc1`
Response: 6.33

Prompt: Again, but for `CNc1c(C(=O)O)ccc2c1C(=O)c1ccccc1C2=O`
Response: 9.33

Prompt: Again, but for COc1ccc(CN2CCC(N3CC(C)OC(C)C3)CC2)c(OC)c1 (stereo unspecified)
Response: 1.06

Prompt: Again, but for `CCNc1nc(NC(C)(C)C)nc(N2CCCC2)n1`
Response: 12.8

Prompt: Again, but for `CCCn1nc(C(=O)NNC(=O)c2cc(S(=O)(=O)NC)ccc2Br)c2ccccc2c1=O`
Response: -2.51

Prompt: Again, but for `COc1ccc(NC(=S)N2CCC(N(C)CCN3CCOCC3)CC2)cc1`
Response: 2.62

Prompt: Again, but for `CC(C)(C)Nc1nc(N2CCCC2)nc(N2CCCC2)n1`
Response: 8.96

Prompt: Again, but for `CCCCn1c(SCc2c(C)noc2C)nc2cc(S(N)(=O)=O)ccc21`
Response: -4.65

Prompt: Again, but for `CCCNC(=O)CCNC(=O)c1ccc(C(C)(C)C)cc1`
Response: -4.92

Prompt: Again, but for `Cn1ncc([N+](=O)[O-])c1C(=O)Nc1cccc(Cl)c1`
Response: -25.5

Prompt: Again, but for `Cc1cc(OCC(=O)O)c2cccc(C)c2n1`
Response: -5.96

Prompt: Again, but for `CC(C)N=c1scc(-c2ccco2)n1/N=C/c1ccc(O)c(O)c1`
Response: 9.93

Prompt: Again, but for Cc1ccc(C(C(=O)NC(C)(C)C)N(Cc2ccccc2)C(=O)c2snc(C(N)=O)c2N)o1 (stereo unspecified)
Response: -7.23

Prompt: Again, but for `S=C(NCc1cccnc1)Nc1ccc(Oc2ccccc2)cc1`
Response: 4.52

Prompt: Again, but for `COc1cc(/C=C\C(=O)NCc2ccc3[nH]c(C)cc3c2)cc(OC)c1OC`
Response: -3.67

Prompt: Again, but for `Cn1ncc([N+](=O)[O-])c1C(=O)Nc1ccc(-c2nc3ccccc3o2)cc1`
Response: 1.46

Prompt: Again, but for `CCCCn1nnc(NC(=O)CCC)n1`
Response: -12.6

Prompt: Again, but for `Cc1cc(=O)[nH]c(SCC(=O)N(CCC#N)c2ccccc2)c1C#N`
Response: -2.5

Prompt: Again, but for `CN(C)Cc1nc2ccccc2c(=O)n1CC#N`
Response: -2.77

Prompt: Again, but for `CCN=c1scc(-c2ccco2)n1/N=C/c1ccc(O)cc1`
Response: 28.5

Prompt: Again, but for `NC(=O)c1ccc(NC(=O)COC(=O)c2cc3c(s2)CCC3)cc1`
Response: 6.74

Prompt: Again, but for `Cc1ccnc(N=Cc2nc(-c3ccccc3Br)oc2O)c1`
Response: 2.41

Prompt: Again, but for `CCCNC(=S)N(Cc1cc2cc(C)ccc2n2nnnc12)CC(C)(C)CN(C)C`
Response: 18.8

Prompt: Again, but for `COC(=O)CSc1nnc(NC(=O)c2ccc3c(c2)OCO3)s1`
Response: 56.1

Prompt: Again, but for `COc1ccc(NC(=O)COC(=O)c2cc3c(s2)CCC3)cc1`
Response: 9.83

Prompt: Again, but for `COc1cc(Cl)c(C)cc1NC(=O)COC(=O)c1cc[n+]([O-])cc1`
Response: -3.43

###

Assign inhibition to each entry below.
Protocol summary: M. tuberculosis growth inhibition, HTS (AID 449762);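 also: bacterial growth assessed after seven days of incubation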
Measurement parameters: M. tuberculosis H37Rv growth inhibition, 7H9 media; at 25 µM; stronger effect = higher value
Screen size: about 330,000 compounds; about 1,900 (0.58%) were called active. Roughly 4% stayed inconclusive and do not appear here. The list is a sample of the results. Measured potencies and affinities stand elsewhere.
Quick note: give the figure in %, leave out the unit.

Prompt: Which measured inhibition value corresponds to `CN1CCN(/N=C/c2ccc(-c3ccccc3)cc2)CC1` ?
Response: 4.56

Prompt: Again, but for `CCOC(=O)COc1ccc2c(c1)C(=O)CC(C)(C)O2`
Response: 54.7

Prompt: Again, but for `Cc1ccc(-n2c(C)cc(/C=N/NC(=O)c3ccc(CN4CCOCC4)cc3)c2C)cc1`
Response: -0.81

Prompt: Again, but for `CN1CCN(/N=C/c2cccc(Cl)c2Cl)CC1`
Response: 4.06

Prompt: Again, but for `O=C(CNS(=O)(=O)c1cccs1)N1CCN(c2ccccn2)CC1`
Response: 4.15

Prompt: Again, but for `COc1ccc(-c2ccnc3nc(N4CCOCC4)nn23)cc1`
Response: 1.34

Prompt: Again, but for `O=C(CCS(=O)(=O)c1ccccc1)Nc1nc(-c2ccc(F)cc2)cs1`
Response: 8.67

Prompt: Again, but for Cc1ccc(NCC(O)C(O)C(O)CO)cc1C (configuration not stated)
Response: -7.11

Prompt: Again, but for CC1CCCN(C2(O)C(=O)Nc3ccc(Br)cc32)C1 (configuration not stated)
Response: 5.15

Prompt: Again, but for `Cc1ccnc2nc(C(=O)Nc3nc(-c4ccccn4)cs3)nn12`
Response: 0.14

Prompt: Again, but for CC(C)Cn1c(CN2CCN(C)C(CCO)C2)nc2ccccc21 (configuration not stated)
Response: -7.61

Prompt: Again, but for `Cc1ccc(C(=O)OCN2C(=O)c3ccccc3C2=O)c(O)c1`
Response: 2.23

###

Protocol summary: M. tuberculosis growth inhibition, HTS (AID 449762);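 also: bacterial growth assessed after seven days of incubation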
Measurement parameters: M. tuberculosis H37Rv growth inhibition, 7H9 media; at 25 µM; stronger effect = higher value
About 1,900 (0.58%) of roughly 330,000 compounds were called active. Roughly 4% stayed inconclusive and do not appear here. The list is a sample of the results. Results with a measured potency or affinity are listed apart.
Property: inhibition (%)
Quick note: give the figure in %, leave out the unit.

Prompt: Which measured inhibition value corresponds to `COCCn1c(=NC(=O)CSC(C)=O)sc2cc(OC)ccc21` ?
Response: -1.47

Prompt: Again, but for `CCCCSC1=NN1c1nc(N)nc(C)c1CC`
Response: -7.73

Prompt: Again, but for CC(CC(=O)Nc1cc([N+](=O)[O-])ccc1Cl)c1ccccc1 (centres undefined)
Response: 3.48

Prompt: Again, but for `Cc1ccc2[nH]c(O)c(N=O)c2c1`
Response: -3.5

Prompt: Again, but for `COc1ccc(C(=O)N/C(N)=N/c2nc3ccccc3o2)cc1`
Response: 43

Prompt: Again, but for `CCOC(=O)c1cc(-c2ccc(N3CCOCC3)cc2)nn1-c1ccc(F)cc1F`
Response: 30.5

Prompt: Again, but for `O/C(=C\Sc1nnc(Cc2ccccc2)o1)c1ccc(F)cc1`
Response: 7.63

Prompt: Again, but for `COc1ccc(/C(N)=N/OC(=O)CCCc2ccccc2)cc1OC`
Response: 14.8

Prompt: Again, but for `Cc1ccc(S(=O)(=O)N(C)c2ccc(C(=O)N3CCC(C(N)=O)CC3)cc2)cc1`
Response: -5.27

Prompt: Again, but for `COC(=O)C1=C(C(=O)OC)[C@@H]2N(C)c3ccc(OC)cc3[C@@]23C[C@@H](C(=O)OC)N(C(=O)CC(C)C)C3=N1`
Response: -3.14

Prompt: Again, but for `Cc1ccc(NC(=O)NCc2ccncc2)cc1Cl`
Response: 4.38

Prompt: Again, but for `CCCCOc1ccc(C(=O)Oc2cccnc2)cc1`
Response: 50

Prompt: Again, but for `Cc1ccc(OC(=O)c2ccc(C)c(C)c2)cn1`
Response: 38.4

Prompt: Again, but for Cc1nn(C(C)C(=O)NCc2ccccc2F)c(=O)c2nn(-c3ccccc3)c(C)c12 (centres undefined)
Response: 0.01

Prompt: Again, but for `COc1ccc(-c2[nH]ncc2-c2ccc(Cl)cc2)c(O)c1`
Response: 41.7

Prompt: Again, but for `COc1ccc(-c2cn[nH]c2-c2ccc(OCc3ccc([N+](=O)[O-])cc3)cc2O)cc1`
Response: 8.94

Prompt: Again, but for `O=Nc1c(O)[nH]c2ccc(F)cc12`
Response: -7.36

Prompt: Again, but for CCCCC(CC)C(=O)N1CCN(C(=O)c2ccco2)CC1 (centres undefined)
Response: -4.92

Prompt: Again, but for COC(=O)CCCC1=CC2=CC(=O)C(C)(OC(=O)c3cccs3)C(=O)C2=CN1Cc1ccccc1 (centres undefined)
Response: -3.58

Prompt: Again, but for `CCCCn1c(=O)[nH]c(=O)c2c1nc(-c1ccsc1)n2Cc1ccccc1`
Response: 7.19

Prompt: Again, but for `CC(C)(C)NC(=O)CSc1ncnc2c1nnn2Cc1ccccc1Cl`
Response: 18

Prompt: Again, but for `O=C(O)c1cc(NN=C2c3ccccc3-c3ccccc32)ccc1Cl`
Response: 14

Prompt: Again, but for `C=C1SC(Nc2c(C)cc(C)cc2C)=NC12CCCCC2`
Response: 4.72

Prompt: Again, but for `O=C(c1cccc(C(F)(F)F)c1)c1c[nH]c(C(=O)NCCCN2CCOCC2)c1`
Response: 2.14

Prompt: Again, but for `O/C(=C\Sc1nnc(Cc2ccccc2)o1)c1ccc(Br)cc1`
Response: 8.01

Prompt: Again, but for COc1ccc(OC)c(-c2csc(NC(=O)COC(=O)C3(C)CC3(Cl)Cl)n2)c1 (centres undefined)
Response: 8.7

Prompt: Again, but for `CCOC(=O)c1c(NC(=O)CCN2C(=O)c3cccc([N+](=O)[O-])c3C2=O)sc(C(=O)OC(C)C)c1C`
Response: 3.56

Prompt: Again, but for `CC(C)=CC(=O)N1CC[C@@H](N2CCN(c3ccccc3F)CC2)[C@H](O)C1`
Response: -5.32

Prompt: Again, but for `CCOc1ccc(-c2[nH]ncc2-c2ccccc2)c(O)c1`
Response: 9.38

Prompt: Again, but for `CCCCS(=O)(=O)N1CCC(C(=O)Oc2ccccc2OC)CC1`
Response: 28.5

Prompt: Again, but for `COc1cc(OC)cc(C(=O)N[C@H](C(=O)Nc2ccc(NC(C)=O)cc2)C(C)C)c1`
Response: -0.98

Prompt: Again, but for `Cc1ccc(NC(=O)c2cc(-c3ccccc3)nn2-c2ccccc2)c(Br)c1`
Response: 62.5

Prompt: Again, but for `Cc1ccc(OCCCN2C(=O)C(=O)c3cccc(C)c32)cc1`
Response: 9.09

Prompt: Again, but for `COC(=O)CSc1nc2ccccc2o1`
Response: 20

Prompt: Again, but for `O=C(COC(=O)Cc1ccc(S(=O)(=O)N2CCOCC2)s1)Nc1ccc([N+](=O)[O-])cc1`
Response: -2.45

Prompt: Again, but for COc1ccc(C)cc1N(C(=O)c1snc(C(N)=O)c1N)C(C(=O)NC1CCCC1)c1ccc(F)cc1 (centres undefined)
Response: 41.8

Prompt: Again, but for `Cc1ccc(SC/C(O)=C(\C#N)c2nc3ccccc3s2)cc1`
Response: 1.37

Prompt: Again, but for `COc1ccc(Cl)cc1NS(=O)(=O)c1cccc(C(=O)NC2CC2)c1`
Response: 1.57

Prompt: Again, but for `Cc1nonc1OCCNc1ccc([N+](=O)[O-])c2cccnc12`
Response: 2.82

Prompt: Again, but for Cc1ccsc1C1Nc2ccc3ncccc3c2C2=C1C(=O)CCC2 (centres undefined)
Response: 2.32

Prompt: Again, but for CC1CCCN(C(=O)Cc2cccc3ccccc23)C1 (centres undefined)
Response: 7.05

Prompt: Again, but for `CCN1CCN(Cc2ccc(NC(=O)c3cc(NC(=O)c4ccc5n[nH]nc5c4)cc(OC)c3)cc2C(F)(F)F)CC1`
Response: 12.9

Prompt: Again, but for CC(CC(=O)Nc1ccc(F)c([N+](=O)[O-])c1)c1ccccc1 (centres undefined)
Response: -6.24

Prompt: Again, but for `O=C1C=C(NCc2ccco2)C2(CCCCC2)O1`
Response: -1.04
